Biological target: Serine/threonine-protein kinase Nek11 (Homo sapiens)
Sequence (whole entry): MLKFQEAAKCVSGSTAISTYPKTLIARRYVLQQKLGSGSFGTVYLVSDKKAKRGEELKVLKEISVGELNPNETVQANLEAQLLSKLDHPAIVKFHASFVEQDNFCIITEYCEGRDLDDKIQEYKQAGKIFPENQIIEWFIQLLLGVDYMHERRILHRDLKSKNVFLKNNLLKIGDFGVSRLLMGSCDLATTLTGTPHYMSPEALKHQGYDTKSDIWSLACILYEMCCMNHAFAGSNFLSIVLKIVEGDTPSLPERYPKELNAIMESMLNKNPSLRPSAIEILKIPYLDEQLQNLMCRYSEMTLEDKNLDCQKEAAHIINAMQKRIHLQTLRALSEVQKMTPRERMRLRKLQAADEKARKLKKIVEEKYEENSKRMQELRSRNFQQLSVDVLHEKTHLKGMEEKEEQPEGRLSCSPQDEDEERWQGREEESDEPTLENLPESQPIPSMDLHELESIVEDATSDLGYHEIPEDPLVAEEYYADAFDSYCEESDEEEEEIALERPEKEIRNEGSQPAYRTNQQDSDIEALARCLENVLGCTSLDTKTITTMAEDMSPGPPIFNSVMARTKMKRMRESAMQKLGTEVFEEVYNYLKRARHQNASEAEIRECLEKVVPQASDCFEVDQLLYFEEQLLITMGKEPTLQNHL
Conditions: at 10 µM
Recorded residual activity by entry
State the result as a value with its unit after it.

Would you please look over these solved cases?
Entry N/C(=N\[N+](=O)[O-])N/N=C\c1ccc(-c2cccc([N+](=O)[O-])c2)o1 : reported residual activity = ? 72%

Entry CCc1nc(-c2ccc(OC)cc2)[nH]c1-c1ccncc1 : reported residual activity = ? 72%

New cases:
Entry COc1cc(OC)c(/C=C2\C(=O)Nc3ccccc32)c(OC)c1 : reported residual activity = ? 61%

Entry O=c1[nH]c2ccccc2n1C1CCN(Cc2ccc(-c3nc4cc5[nH]cnc5cc4nc3-c3ccccc3)cc2)CC1 : reported residual activity = ? 88%

Entry COC(=O)[C@@]1(O)C[C@H]2O[C@]1(C)n1c3ccccc3c3c4c(c5c6ccccc6n2c5c31)C(=O)NC4 : reported residual activity = ? 9%

###

biological target: Mitogen-activated protein kinase 11 (Homo sapiens) (UniProt Q15759); settings: at 10 µM
Sequence (Q15759 whole entry): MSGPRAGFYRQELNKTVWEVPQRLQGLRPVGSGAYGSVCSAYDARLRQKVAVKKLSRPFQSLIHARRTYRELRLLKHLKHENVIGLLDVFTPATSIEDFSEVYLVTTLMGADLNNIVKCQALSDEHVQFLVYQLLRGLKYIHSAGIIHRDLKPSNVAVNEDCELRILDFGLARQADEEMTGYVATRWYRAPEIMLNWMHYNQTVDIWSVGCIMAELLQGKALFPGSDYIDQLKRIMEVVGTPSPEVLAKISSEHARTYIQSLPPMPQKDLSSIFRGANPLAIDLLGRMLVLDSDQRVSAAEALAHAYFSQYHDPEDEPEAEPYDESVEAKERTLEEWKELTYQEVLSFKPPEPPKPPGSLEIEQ
Recorded residual activity by entry
Entry rule: numbers only, all in %.

Would you please look over these solved cases?
Entry CCc1nc(-c2ccc(OC)cc2)[nH]c1-c1ccncc1 : reported residual activity = ? 72

Entry CC(C)[C@H](CO)Nc1nc(Nc2cccc(Cl)c2)c2ncn(C(C)C)c2n1 : reported residual activity = ? 96

Entry COc1cc2ncnc(Nc3ccc(OCc4ccccc4)cc3)c2cc1OC : reported residual activity = ? 102

New cases:
Entry O=c1[nH]c2ccccc2n1C1CCN(Cc2ccc(-c3nc4cc5[nH]cnc5cc4nc3-c3ccccc3)cc2)CC1 : reported residual activity = ? 103

Entry COC(=O)[C@@]1(O)C[C@H]2O[C@]1(C)n1c3ccccc3c3c4c(c5c6ccccc6n2c5c31)C(=O)NC4 : reported residual activity = ? 29

Entry O=C1c2ccccc2-c2nc3nnnn3nc21 : reported residual activity = ? 104

###

target: Tyrosine-protein kinase ITK/TSK (Homo sapiens); details: at 1 µM
assay.endpoint: residual activity (%)
Entry rule: numbers only, all in %.

Would you please look over these solved cases?
Entry O=C1NC(=O)c2c1c1c3ccccc3n3c1c1c2c2ccccc2n1C1CCC3O1 : reported residual activity = ? 88

Entry CCn1cnc2c(Nc3cccc(Cl)c3)nc(N[C@@H]3CCCC[C@@H]3N)nc21 : reported residual activity = ? 89

Entry CC(C)[C@H](CO)Nc1nc(Nc2cccc(Cl)c2)c2ncn(C(C)C)c2n1 : reported residual activity = ? 68

Entry COc1ccc2c(c[n+](C)c3c4cc5c(cc4ccc23)OCO5)c1OC : reported residual activity = ? 99

Entry C[S+]([O-])c1ccc(-c2nc(-c3ccc(F)cc3)c(-c3ccncc3)[nH]2)cc1 (stereo not drawn) : reported residual activity = ? 100

Entry COc1cc2ncnc(Nc3ccc(OCc4ccccc4)cc3)c2cc1OC : reported residual activity = ? 107

New cases:
Entry O=[N+]([O-])/C=C/c1ccc2c(c1)OCO2 : reported residual activity = ? 105

Entry COC(=O)[C@@]1(O)C[C@H]2O[C@]1(C)n1c3ccccc3c3c4c(c5c6ccccc6n2c5c31)C(=O)NC4 : reported residual activity = ? 15

###

Recorded residual activity by entry
biological target: Serine/threonine-protein kinase 33 (Homo sapiens) (UniProt Q9BYT3); details: at 10 µM
Sequence (Q9BYT3 whole entry, looked up): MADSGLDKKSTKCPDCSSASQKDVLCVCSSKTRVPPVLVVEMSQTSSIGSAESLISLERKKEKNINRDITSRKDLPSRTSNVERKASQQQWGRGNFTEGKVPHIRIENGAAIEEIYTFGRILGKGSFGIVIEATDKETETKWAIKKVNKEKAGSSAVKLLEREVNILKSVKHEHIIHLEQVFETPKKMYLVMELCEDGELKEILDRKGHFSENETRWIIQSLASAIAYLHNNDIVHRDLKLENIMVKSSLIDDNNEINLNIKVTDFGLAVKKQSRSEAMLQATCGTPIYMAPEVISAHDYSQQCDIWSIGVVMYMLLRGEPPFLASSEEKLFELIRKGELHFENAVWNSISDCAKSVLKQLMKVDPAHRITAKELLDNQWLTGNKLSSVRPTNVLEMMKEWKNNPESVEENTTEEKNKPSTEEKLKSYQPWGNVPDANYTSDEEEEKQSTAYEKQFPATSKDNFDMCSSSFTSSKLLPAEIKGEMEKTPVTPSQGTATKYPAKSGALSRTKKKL
Entry rule: numbers only, all in %.

Would you please look over these solved cases?
Entry COc1cc2ncnc(Nc3ccc(OCc4ccccc4)cc3)c2cc1OC : reported residual activity = ? 105

Entry COc1ccc2c(c1)/C(=C/c1cnc[nH]1)C(=O)N2 : reported residual activity = ? 53

Entry CC(C)[C@H](CO)Nc1nc(Nc2cccc(Cl)c2)c2ncn(C(C)C)c2n1 : reported residual activity = ? 53

Entry CCc1nc(-c2ccc(OC)cc2)[nH]c1-c1ccncc1 : reported residual activity = ? 100

Entry O=C1c2ccccc2-c2nc3nnnn3nc21 : reported residual activity = ? 100

New cases:
Entry O=c1[nH]c2ccccc2n1C1CCN(Cc2ccc(-c3nc4cc5[nH]cnc5cc4nc3-c3ccccc3)cc2)CC1 : reported residual activity = ? 95

Entry COC(=O)[C@@]1(O)C[C@H]2O[C@]1(C)n1c3ccccc3c3c4c(c5c6ccccc6n2c5c31)C(=O)NC4 : reported residual activity = ? 0

Entry COc1cc(OC)c(/C=C2\C(=O)Nc3ccccc32)c(OC)c1 : reported residual activity = ? 92

###

Target: Serine/threonine-protein kinase TBK1 (Homo sapiens)
Sequence (whole entry): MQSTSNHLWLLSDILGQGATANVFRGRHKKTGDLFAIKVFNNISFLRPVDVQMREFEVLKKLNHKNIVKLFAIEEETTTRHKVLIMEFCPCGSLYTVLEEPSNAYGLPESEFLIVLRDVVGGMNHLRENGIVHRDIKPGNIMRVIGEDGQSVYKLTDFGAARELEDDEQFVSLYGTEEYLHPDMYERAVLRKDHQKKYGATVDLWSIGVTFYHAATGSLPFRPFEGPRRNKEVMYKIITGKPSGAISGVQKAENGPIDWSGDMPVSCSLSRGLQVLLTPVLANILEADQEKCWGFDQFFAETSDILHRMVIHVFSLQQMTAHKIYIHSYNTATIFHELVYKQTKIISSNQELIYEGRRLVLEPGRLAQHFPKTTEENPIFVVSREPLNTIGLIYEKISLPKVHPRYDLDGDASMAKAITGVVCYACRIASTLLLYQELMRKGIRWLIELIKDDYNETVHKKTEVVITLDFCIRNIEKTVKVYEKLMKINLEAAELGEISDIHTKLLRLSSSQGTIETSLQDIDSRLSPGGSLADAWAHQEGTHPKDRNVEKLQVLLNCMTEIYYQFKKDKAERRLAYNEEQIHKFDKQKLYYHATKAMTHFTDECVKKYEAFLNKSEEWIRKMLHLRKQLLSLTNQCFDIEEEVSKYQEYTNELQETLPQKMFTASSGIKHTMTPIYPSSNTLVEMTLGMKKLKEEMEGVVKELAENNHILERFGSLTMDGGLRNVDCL
Conditions: at 1 µM
Mark true for reported residual activity of 90% or greater; mark false for anything smaller.

# bool: residual activity of COc1ccc2c(c[n+](C)c3c4cc5c(cc4ccc23)OCO5)c1OC >= 90% false

# bool: residual activity of O=[N+]([O-])/C=C/c1ccc2c(c1)OCO2 >= 90% false

# bool: residual activity of C[S+]([O-])c1ccc(-c2nc(-c3ccc(F)cc3)c(-c3ccncc3)[nH]2)cc1 (stereo unspecified) >= 90% true

# bool: residual activity of CCn1cnc2c(Nc3cccc(Cl)c3)nc(N[C@@H]3CCCC[C@@H]3N)nc21 >= 90% false

# bool: residual activity of O=C1NC(=O)c2c1c1c3ccccc3n3c1c1c2c2ccccc2n1C1CCC3O1 >= 90% false

Then this molecule:
# bool: residual activity of CC(C)(C)c1cc(C=C(C#N)C#N)cc(Br)c1O >= 90% true

###

Recorded residual activity by entry
target: Receptor tyrosine-protein kinase erbB-4 (Homo sapiens); settings: at 10 µM
Entry rule: numbers only, all in %.

Entry COc1cc(OC)c(/C=C2\C(=O)Nc3ccccc32)c(OC)c1 : reported residual activity = ? 106

Entry CCc1nc(-c2ccc(OC)cc2)[nH]c1-c1ccncc1 : reported residual activity = ? 108

Entry O=C1Nc2ccc3ncsc3c2/C1=C/c1c[nH]cn1 : reported residual activity = ? 102

Entry COC(=O)[C@@]1(O)C[C@H]2O[C@]1(C)n1c3ccccc3c3c4c(c5c6ccccc6n2c5c31)C(=O)NC4 : reported residual activity = ? 19

Entry O=c1[nH]c2ccccc2n1C1CCN(Cc2ccc(-c3nc4cc5[nH]cnc5cc4nc3-c3ccccc3)cc2)CC1 : reported residual activity = ? 61

Entry c1cc(-c2cnn3cc(-c4ccc(OCCN5CCCCC5)cc4)cnc23)ccn1 : reported residual activity = ? 100

Entry N/C(=N\[N+](=O)[O-])N/N=C\c1ccc(-c2cccc([N+](=O)[O-])c2)o1 : reported residual activity = ? 88
